target: T1, EED (amino acids 40-441) (human, UniProt O75530-1 40-441); experiment: fluorescence polarisation; fluorescence anisotropy displacement titration: 2-fold serial dilutions of unlabelled peptide with 10 µM EED and 40 nM 5-FAM labelled JARID2-K116me3 peptide; same buffer, 30 °C; Kd of the unlabelled peptide from a fit; conditions: both partners purified
T1 construct: pGEX-MHL vector, TEV-cleavable GST tag; source: E. coli BL21 (DE3), purified (Glutathione-agarose, TEV cleavage, heparin, gel filtration); not shown: GST, N-terminal, cleaved
T1 sequence (O75530 40-441): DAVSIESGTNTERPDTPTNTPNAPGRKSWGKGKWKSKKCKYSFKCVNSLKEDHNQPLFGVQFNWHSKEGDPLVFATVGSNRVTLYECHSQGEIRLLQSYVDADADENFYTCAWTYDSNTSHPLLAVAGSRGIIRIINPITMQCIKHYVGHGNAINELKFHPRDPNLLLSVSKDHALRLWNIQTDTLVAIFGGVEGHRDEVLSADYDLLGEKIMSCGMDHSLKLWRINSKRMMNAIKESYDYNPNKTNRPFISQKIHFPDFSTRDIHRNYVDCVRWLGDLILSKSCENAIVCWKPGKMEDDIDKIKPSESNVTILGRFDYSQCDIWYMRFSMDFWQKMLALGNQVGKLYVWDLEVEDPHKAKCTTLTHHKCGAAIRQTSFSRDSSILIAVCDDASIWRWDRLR
pKd: −log10 of the molar value. Where no end group is shown, it is not given here. [ ]: non-standard residue; d: D form. Lys(Me3) = C[N+](C)(C)CCCC[C@H](N)C(=O)O; Lys(Me2) = CN(C)CCCC[C@H](N)C(=O)O; Lys(Me) = CNCCCC[C@H](N)C(=O)O
Examples of binders with documented pKd follow.
MEASUREMENT_KIND: pKd

[[record]]
binder = "LK[Lys(Me2)]FPG [PALI1-K1241me2 peptide]"
reported_result = 4.72

[[record]]
binder = "LK[Lys(Me)]FPG [PALI1-K1241me1 peptide]"
reported_result = 3.62

[[record]]
binder = "TKAAR[Lys(Me3)]SAPAT (also: trimethyllysine at K27, position not placed (two Lys in chain)) [H3K27me3 peptide]"
reported_result = 4.38

[[record]]
binder = "LQ[Lys(Me3)]YA [PALI1-K1219me3 peptide]"
reported_result = 5.12

[[record]]
binder = "LK[Lys(Me3)]FPG [PALI1-K1241me3 peptide]"
reported_result = 5.13

